# system_tested: T1, 4H457-bA
# T1 chain: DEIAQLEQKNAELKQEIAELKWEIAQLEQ
# experimental_details: two-hybrid library CCNG1;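 note: natural log of median RNA to DNA barcode read ratio; higher means stronger binding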
Exam item: assign yes to entries whose interaction score is below 1 and no to entries at or above 1. Note that a value of exactly 1 receives no.

Ask: is_below(interaction score, 1) for DKIAQLKQKNAELKQEIAELEWEIAQLKQ [4H3010-bA] ?
Reply: no

Ask: is_below(interaction score, 1) for DEIAQLEQENAELEQKIAELKWEIAQLKQ [4H170-bA] ?
Reply: no

Ask: is_below(interaction score, 1) for DEIAQLEQEIAELKQKIAELKWKNAQLKQ [4H112-bA] ?
Reply: no

Ask: is_below(interaction score, 1) for DKNAQLKQKIAELKQENAELEWKIAQLKQ [4H3926-bA] ?
Reply: yes

Ask: is_below(interaction score, 1) for DENAQLKQKIAELEQKIAELEWKNAQLEQ [4H1831-bA] ?
Reply: yes

Where do the numbers come from? From paper PMC10397247.
